Data origin: paper PMC7251097

biological target: His6-AspH315–758 (human aspartate/asparagine-β-hydroxylase, AspH) (Homo sapiens); construct: N-Terminally His6-tagged human AspH315–758 (His6-AspH315–758) was produced in E. coli BL21 (DE3) cells; made in house; host or cells: E. coli BL21 (DE3), pET-28a(+) vector; assay: SPE-MS AspH inhibition assay (LOPAC screen at fixed 20 μM and IC50 dose-response), hydroxylation of cyclic peptide hFX-CP101–119; type: biochemical
Structures can show the parent of a compound that is named as a salt.
measurement name: Plate 2 (% conversion) (%)
Express the result in % but write the number alone.

Would you please look over these solved cases?
- [Cl-].[Li+] [Lithium Chloride]: 35.61
- CN(C)C(=O)[C@H](O)[C@H](Cc1ccccc1)NC(=O)c1cc2cc(Cl)ccc2[nH]1 [CP-91149]: 37.12
- C[C@@H](N)Cc1cnc[nH]1.Cl.Cl: 36.76
- C#CCN[C@H](C)Cc1ccccc1.Cl [R-(-)-Desmethyldeprenyl hydrochloride]: 39.05
- COc1ccc2c(c1OC)C(=O)OC2C1c2cc3c(cc2CCN1C)OCO3 (single isomer, unassigned; (+)) [(+)-Hydrastine]: 38.28

## Input Fill in the blank: the reported Plate 2 (% conversion) of NCCc1c[nH]c2ccc(O)cc12 [Serotonin hydrochloride] is ____.
## Output 31.81

## Input Queued: CC(=O)[C@H]1CC[C@H]2[C@@H]3CC[C@H]4C[C@](C)(O)CC[C@]4(C)[C@H]3CC[C@]12C [Ganaxolone]
## Output 36.34

## Input Queued: CN1C(=O)CCS(=O)(=O)C1c1ccc(Cl)cc1 (stereo not drawn) [Chlormezanone]
## Output 39.39

## Input Queued: CCCn1c(=O)c2[nH]c(C3CCCC3)nc2n(CCC)c1=O [8-Cyclopentyl-1,3-dipropylxanthine]
## Output 38.65

----------
target: His6-AspH315–758 (human aspartate/asparagine-β-hydroxylase, AspH) (Homo sapiens); construct: N-Terminally His6-tagged human AspH315–758 (His6-AspH315–758) was produced in E. coli BL21 (DE3) cells; made in house; host or cells: E. coli BL21 (DE3), pET-28a(+) vector; experiment: SPE-MS AspH inhibition assay (LOPAC screen at fixed 20 μM and IC50 dose-response), hydroxylation of cyclic peptide hFX-CP101–119; format: biochemical; conditions: 20 µM
measurement name: % inhibition (%)
Express the result in % but write the number alone.

Would you please look over these solved cases?
- CCCCCCCCc1ccc(-c2ccc(C(=O)O)cc2)cc1 [AC-55649]: 9.11
- Br.C=CCN1CCc2cc(O)c(O)cc2C(c2ccccc2)C1 (racemic) [(±)-SKF 38393, N-allyl-, hydrobromide]: 73.28
- Br.CN1[C@@H]2CC(OC(=O)[C@H](CO)c3ccccc3)C[C@H]1[C@@H]1O[C@@H]12 (single isomer, unassigned; (-)) [(-)-Scopolamine hydrobromide]: -9.71

Here is the next item to consider.
## Input Fill in the blank: the reported % inhibition of CCc1ccccc1OC[C@@H](O)CN[C@H]1CCCc2ccccc21.O=C(O)C(=O)O [SR 59230A oxalate] is ____.
## Output 66.24

----------
target: His6-AspH315–758 (human aspartate/asparagine-β-hydroxylase, AspH) (Homo sapiens); construct: N-Terminally His6-tagged human AspH315–758 (His6-AspH315–758) was produced in E. coli BL21 (DE3) cells; made in house; host or cells: E. coli BL21 (DE3), pET-28a(+) vector; test: SPE-MS AspH inhibition assay (LOPAC screen at fixed 20 μM and IC50 dose-response), hydroxylation of cyclic peptide hFX-CP101–119; format: biochemical; conditions: LOPAC compound at fixed 20 uM; substrate conversion, plate 1
Where a name gives a salt, the structure may show the parent alone.
measurement name: Plate 1 (% conversion) (%)
Express the result in % but write the number alone.

Would you please look over these solved cases?
• NN=C(N)N.NN=C(N)N.O=S(=O)(O)O [Aminoguanidine hemisulfate] = 34.64
• CN(C)CCCN1c2ccccc2CCc2ccc(Cl)cc21 [Clomipramine hydrochloride] = 43.38
• Cl.Clc1ccc(Cn2c(CN3CCCC3)nc3ccccc32)cc1 [Clemizole hydrochloride] = 40.57

## Input Fill in the blank: the reported Plate 1 (% conversion) of [N-]=[N+]=Nc1ccc(C(=O)CSC[C@H](NC(=O)CC[C@H](N)C(=O)O)C(=O)NCC(=O)O)cc1 is ____.
## Output 36.62

## Input Queued: NCCCS(=O)(=O)O.[Na] [3-Amino-1-propanesulfonic acid sodium]
## Output 38.25

## Input Queued: N[C@@H]1[C@H]2CN(c3nc4c(cc3F)c(=O)c(C(=O)O)cn4-c3ccc(F)cc3F)C[C@@H]12 [Trovafloxacin mesylate]
## Output 44.10

----------
target: His6-AspH315–758 (human aspartate/asparagine-β-hydroxylase, AspH) (Homo sapiens, UniProt Q12797); construct: N-Terminally His6-tagged human AspH315–758 (His6-AspH315–758) was produced in E. coli BL21 (DE3) cells; made in house; host or cells: E. coli BL21 (DE3), pET-28a(+) vector; test: SPE-MS AspH inhibition assay (LOPAC screen at fixed 20 μM and IC50 dose-response), hydroxylation of cyclic peptide hFX-CP101–119; assay type: biochemical; settings: LOPAC compound at fixed 20 uM; plate 1, normalised to DMSO and 2,4-PDCA controls
Sequence (Q12797 315-758): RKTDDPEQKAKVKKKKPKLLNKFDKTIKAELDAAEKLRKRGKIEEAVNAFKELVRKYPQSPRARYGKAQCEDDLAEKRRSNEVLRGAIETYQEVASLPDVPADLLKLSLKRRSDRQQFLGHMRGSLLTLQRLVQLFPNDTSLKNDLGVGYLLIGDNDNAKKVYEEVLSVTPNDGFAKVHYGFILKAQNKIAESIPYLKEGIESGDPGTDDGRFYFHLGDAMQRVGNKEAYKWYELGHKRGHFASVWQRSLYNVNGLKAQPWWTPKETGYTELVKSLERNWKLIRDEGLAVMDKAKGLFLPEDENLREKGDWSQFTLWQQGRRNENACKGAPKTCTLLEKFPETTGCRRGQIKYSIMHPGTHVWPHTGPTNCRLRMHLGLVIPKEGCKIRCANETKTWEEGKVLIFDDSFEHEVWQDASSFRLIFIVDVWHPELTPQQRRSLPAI
Counter-ions that a name gives are not always drawn.
measurement name: Plate 1 (% inhibition) (%)
Express the result in % but write the number alone.

Would you please look over these solved cases?
- NS(=O)(=O)c1cc2c(cc1Cl)N=CNS2(=O)=O [Chlorothiazide]: -4.46
- Clc1nccc2c1ccc1ccccc12 [CBIQ]: -13.62
- CC(C)(C)NC(=O)[C@@H]1CN(Cc2cccnc2)CCN1C[C@@H](O)C[C@@H](Cc1ccccc1)C(=O)N[C@H]1c2ccccc2C[C@H]1O.O=S(=O)(O)O [Indinavir sulfate salt hydrate]: -10.28

## Input Fill in the blank: the reported Plate 1 (% inhibition) of COc1cccc(OC)c1OCCNCC1CSc2ccccc2O1 (stereo not shown) [Benoxathian hydrochloride] is ____.
## Output -17.92

----------
Plate 2 (% conversion): recorded values
biological target: His6-AspH315–758 (human aspartate/asparagine-β-hydroxylase, AspH) (Homo sapiens); construct: N-Terminally His6-tagged human AspH315–758 (His6-AspH315–758) was produced in E. coli BL21 (DE3) cells; made in house; host or cells: E. coli BL21 (DE3), pET-28a(+) vector; test: SPE-MS AspH inhibition assay (LOPAC screen at fixed 20 μM and IC50 dose-response), hydroxylation of cyclic peptide hFX-CP101–119; assay type: biochemical; conditions: LOPAC compound at 20uM, plate 2; conversion of substrate peptide
Where a name gives a salt, the structure may show the parent alone.
Express the result in % but write the number alone.

- NC(=O)OCC(COC(N)=O)c1ccccc1 [Felbamate]: 34.68
- OCCN1CCN(CC/C=C2/c3ccccc3Sc3ccc(C(F)(F)F)cc32)CC1 [cis-(Z)-Flupenthixol dihydrochloride]: 67.44

Here is the next item to consider.
## Input Fill in the blank: the reported Plate 2 (% conversion) of Cl.N#Cc1ccc(N2CCN(C(=O)COc3ccc4[nH]cc(CCN)c4c3)CC2)cc1 [Donitriptan monohydrochloride] is ____.
## Output 23.20

----------
Plate 1 (% conversion): recorded values
target: His6-AspH315–758 (human aspartate/asparagine-β-hydroxylase, AspH) (Homo sapiens, UniProt Q12797); construct: N-Terminally His6-tagged human AspH315–758 (His6-AspH315–758) was produced in E. coli BL21 (DE3) cells; made in house; host or cells: E. coli BL21 (DE3), pET-28a(+) vector; experiment: SPE-MS AspH inhibition assay (LOPAC screen at fixed 20 μM and IC50 dose-response), hydroxylation of cyclic peptide hFX-CP101–119; assay type: biochemical; settings: LOPAC compound at fixed 20 uM; substrate conversion, plate 1
Dear colleague, please send the value followed by its unit.

Would you please look over these solved cases?
• COC(=O)C1=C(C)NC(C)=C(C(=O)OC(C)(C)CN(C)CCC(c2ccccc2)c2ccccc2)C1c1cccc([N+](=O)[O-])c1.COC(=O)C1=C(C)NC(C)=C(C(=O)OC(C)(C)CN(C)CCC(c2ccccc2)c2ccccc2)C1c1cccc([N+](=O)[O-])c1.Cl.Cl.O (stereo not drawn) [Lercanidipine hydrochloride hemihydrate] = 27.34%
• CN(C)c1nc(N(C)C)nc(N(C)C)n1 [Altretamine] = 35.99%

Here is the next item to consider.
## Input Fill in the blank: the reported Plate 1 (% conversion) of CCCCN(CCCC)CC(O)c1cc(Cl)cc2c1-c1ccc(Cl)cc1/C2=C/c1ccc(Cl)cc1 (stereo not drawn) [Lumefantrine] is ____.
## Output 36.51%
